- Test system: guinea pig skin
- procedure summary: Continuous irritative test of guinea pig skin (Draize method)
- Format: in vivo, guinea pig (Hartley series)
- experimental parameters: Table 1; 0.5% in ethanol/propylene glycol (7:3), 50 μL once a day, 3 days straight; total of erythema and edema, full marks 8 points
reported endpoint: Draize score
// return the numeric value with its unit appended

compound	system	Draize score
CC1=C(/C=C/C(C)=C/C=C/C(C)=C/C(=O)O)C(C)(C)CCC1 [Retinoic acid, reference compound]	guinea pig skin	8.0 points
CCCCCCCCCCCCCCCCCCCCCCOCCOCCOCCOCCOCCOCCOCCOCCOCCOCCOC(=O)N[C@H]1C(O)O[C@H](CO)[C@@H](O)[C@@H]1O (stereo partly shown)	guinea pig skin	0.1 points
CCCCCCCCCCCC(=O)N[C@H]1C(O)O[C@H](CO)[C@@H](O)[C@@H]1O (stereo partly drawn) [N-lauroyl-D-glucosamine]	guinea pig skin	0.1 points
CCCCCCCC/C=C\CCCCCCCC(=O)N[C@H]1C(O)O[C@H](CO)[C@@H](O)[C@@H]1O (stereo partly drawn) [N-oleoyl-D-glucosamine]	guinea pig skin	0.2 points
CC(C)CCCCCCCCCCCCCCC(=O)N[C@H]1C(O)O[C@H](CO)[C@@H](O)[C@@H]1O (stereo partly drawn) [N-isostearoyl-D-glucosamine]	guinea pig skin	0.1 points
CC(C=CC1=C(C)CCCC1(C)C)=CC=CC(C)=CC(=O)N[C@H]1C(O)O[C@H](CO)[C@@H](O)[C@@H]1O (single isomer, unassigned) [N-retinoyl-D-glucosamine (9-cis isomer/13-cis isomer/trans i]	guinea pig skin	0.1 points

Shifting focus to the compound that follows.
**Query** What value of Draize score has been reported for the following compound? CCCCCCCCCCCCCCCCCCOCCOCCOCCOCCOCCOC(=O)N[C@H]1C(O)O[C@H](CO)[C@@H](O)[C@@H]1O (stereo partly shown)
**Result** 0.2 points
